test system: NCI-H226 lung; assay: NCI tumour cell line growth inhibition, 48 h; in the data active = GI50 below about 0.43 µM; inactive = the rest
Classes used: active, inactive

- compound: "CCOc1cc(/C=N\\NC(=O)N/N=C/c2ccc(O)c(OCC)c2)ccc1O"
  class: "inactive"
- compound: "COc1ccc(-n2cc(-c3ccc(OC)c(OC)c3)nc2SCc2ccccc2)cc1Cl"
  class: "inactive"
- compound: "CS[C@@]1(C(=O)Nc2ccc3[nH]nc(-c4ccc(OC(C)C)nc4)c3c2)CCN(CC(=O)N2CC=C(c3ccc(-c4ncn(C)n4)cc3)CC2)C1"
  class: "inactive"
- compound: "CN1CCN(c2ccc3nc4c(nc3c2C(F)(F)F)C(=O)c2ncccc2C4=O)CC1"
  class: "inactive"
- compound: "CCOC(=O)CNC(=O)C(CSC(=O)N(C)O)NC(=O)CCC(N)C(=O)O (stereo not drawn)"
  class: "inactive"
- compound: "Cc1c(N2C(=O)/C(=C\\c3ccc(N(C)C)cc3)N=C2c2ccccc2)c(=O)n(-c2ccccc2)n1C"
  class: "inactive"
- compound: "O=C(NO)c1cnc(N2CCN(S(=O)(=O)c3ccc4ccccc4c3)CC2)nc1"
  class: "active"
- compound: "O=C(Nc1ccc(S(=O)(=O)NC2CCCCCC2)cc1)C(c1ccccc1)S(=O)(=O)c1ccc(F)cc1 (stereo not drawn)"
  class: "active"

###

tested on: A498 renal; experiment: NCI tumour cell line growth inhibition, 48 h
# maps each entry to its TGI
experimental_readout: TGI

- compound: "CC12C(=O)N(CCN)C(=O)C1C1c3ccccc3C2c2ccccc21 (stereo unspecified)"
  experimental_readout: "TGI"
  result: "> 100 µM"
- compound: "COc1ccc(C2C3=C(COC3=O)N(CCO)c3cc4c(cc32)OCCO4)cc1OC (stereo unspecified)"
  experimental_readout: "TGI"
  result: "> 15.6 µM"
- compound: "CC(O)=NC(Cc1ccc2ccccc2c1)C(O)=NC(Cc1ccc(Cl)cc1)C(O)=NC(Cc1c[nH]c2ccccc12)C(O)=NC(CO)C(O)=NC(Cc1ccc(O)cc1)C(O)=NC(CCCN=C(N)N)C(O)=NC(CC(C)C)C(O)=NC(CCCN=C(N)N)C(=O)N1CCCC1C(O)=NC(C)C(=N)O (stereo unspecified)"
  experimental_readout: "TGI"
  result: "> 100 µM"
- compound: "CO[C@]12C[C@H](CNC(=O)c3cc(Br)c(Br)[nH]3)O[C@H]1NC(=O)N2"
  experimental_readout: "TGI"
  result: "> 100 µM"
- compound: "COc1cc(/C=C/C(=O)c2ccc(Nc3nc(Nc4ccccc4)nc(Nc4ccc(Cl)cc4)n3)cc2)cc(OC)c1OC"
  experimental_readout: "TGI"
  result: "> 32.5 µM"
- compound: "CN(C)CCOc1nc2ccccc2c2c1-c1ccc(Cl)cc1C2=O"
  experimental_readout: "TGI"
  result: "2.87 µM"
- compound: "CCc1oc2ccc(OC)c3c2c1C=CC=C3"
  experimental_readout: "TGI"
  result: "> 100 µM"
- compound: "CS(=O)(=O)c1nc(Cl)c(Cl)c(C#N)c1Cl"
  experimental_readout: "TGI"
  result: "35.3 µM"
- compound: "NC(N)=NS(=O)(=O)c1ccc(NNc2c3ccccc3nc3c(C(=O)Nc4ccc(S(N)(=O)=O)cc4)cccc23)cc1"
  experimental_readout: "TGI"
  result: "> 100 µM"
- compound: "NC(=O)CCC(NC(=O)C(F)(F)F)C(=O)O (stereo unspecified)"
  experimental_readout: "TGI"
  result: "> 100 µM"
- compound: "N#CC(c1ccccc1)N(CCc1ccccc1)C(=O)Oc1ccccc1 (stereo unspecified)"
  experimental_readout: "TGI"
  result: "> 100 µM"
- compound: "COc1ccc(/C(Cl)=C/c2ccc(Cl)c(Cl)c2)cc1"
  experimental_readout: "TGI"
  result: "72.8 µM"
- compound: "COc1ccc(NC(=O)O[C@H]2[C@H](O[C@H]3[C@@H](O)COC(O[C@H]4C[C@H]5[C@@H]6CC=C7C[C@@H](O)CC[C@]7(C)[C@H]6CC[C@]5(C)[C@H]4[C@H](C)C(=O)CCC(C)C)[C@@H]3OC(C)=O)OC[C@@H](O)[C@@H]2O)cc1 (stereo partly specified)"
  experimental_readout: "TGI"
  result: "< 0.01 µM"
- compound: "COc1ccc(C2S/C(=C\\c3cccc(O)c3)C(=O)N2NC(=O)Cc2ccccc2)cc1 (stereo unspecified)"
  experimental_readout: "TGI"
  result: "> 100 µM"
- compound: "CC(C)N(C[C@H]1O[C@@H](n2cnc3c(N)ncnc32)[C@H](O)[C@@H]1O)C1CC(CCc2nc3ccc(C(C)(C)C)cc3[nH]2)C1 (stereo partly specified)"
  experimental_readout: "TGI"
  result: "> 100 µM"
- compound: "CC1(C)O[C@@H](CP(c2ccccc2)c2ccccc2)[C@H](CP(c2ccccc2)c2ccccc2)O1"
  experimental_readout: "TGI"
  result: "39.1 µM"
